- assay target: T1, mfNPR1-mFc:hBNP complex (monkey; human, UniProt P16860 103-134)
- T1 construct: Receptor-Fc pre-complexed with 10-fold hBNP
- assay protocol: SPR Biacore, mAb captured by anti-human Fc, 37C
attribute measured: kon (M⁻¹ s⁻¹)

{"columns": ["binder", "attribute measured", "reported measurement"],
 "data": [
  ["mAb25479 (antibody, human IgG4, V domains shown) VH: QVQLVQSGAEVKKPGASVKVSCKASGYTFTGYYIHWVRQAPGQGLEWMGWINPNSIGTNYAQKFQGRVTLTRDTSISTAYMELSSLRSDDTAVYYCARGGSSSYYYYYYGMDVWGQGTTVTVSS VL: DIQMTQSPSSLSASVGDRVTITCRASQSIDNYLNWYQQKPGKAPKLLIYVASSLQSGVPSRFSGSGSGTDFTLTISSLQPEDFATYYCQQSYSTPLTFGGGTKVEIK", "kon", 53000]
]}
